method: Metabolic stability in human liver microsomes assessed as compound remaining measured upto 60 mins by LC/MS/MS analysis
Type: ADME, Microsome
test context: read-out: Stability
measure: remaining at 1 h (%)

                           structure_string  units_text  data_value
0  Cc1ccc(-c2cc3c(cc2-c2ccc(C#N)cc2)c(C(=O)N2CCC(N)CC2)cn3S(=O)(=O)c2ccc(F)cc2)cc1           %         102

###

tgt: Amine oxidase [flavin-containing] B (Homo sapiens)
Sequence (P27338 whole entry): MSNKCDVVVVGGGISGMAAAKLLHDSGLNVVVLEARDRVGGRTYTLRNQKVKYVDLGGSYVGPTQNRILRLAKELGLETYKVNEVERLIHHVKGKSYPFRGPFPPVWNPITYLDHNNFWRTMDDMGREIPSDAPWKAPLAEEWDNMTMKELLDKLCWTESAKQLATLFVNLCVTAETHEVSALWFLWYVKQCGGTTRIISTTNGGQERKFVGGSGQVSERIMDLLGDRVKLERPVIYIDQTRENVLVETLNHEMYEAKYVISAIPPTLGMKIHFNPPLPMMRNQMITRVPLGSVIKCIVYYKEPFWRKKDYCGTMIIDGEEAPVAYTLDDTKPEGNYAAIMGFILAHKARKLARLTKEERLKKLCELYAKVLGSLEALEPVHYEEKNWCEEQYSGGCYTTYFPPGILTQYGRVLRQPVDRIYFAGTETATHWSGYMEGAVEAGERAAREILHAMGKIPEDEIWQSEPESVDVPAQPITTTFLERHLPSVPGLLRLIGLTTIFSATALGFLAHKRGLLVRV
pIC50: −log10 of the molar value.
measure: pIC50

>>> print(df.to_string())
                           structure_string  data_value
0  Cc1ccc(-c2cc3occ(CN4CCC[C@H](N)C4)c3cc2-c2ccc(C#N)cc2)cc1      < 4.70
